Assay: qHTS assay to identify small molecule agonists of the TGF-beta/Smad signaling pathway (AID 1346859); also: % is scaled to controls: 0 for no effect and ±100 for the full control effect
Conditions: SBE-bla HEK293T, TGF-beta/Smad beta-lactamase reporter, 5 h; series mostly up to 76.8 µM
Description: U.S. Tox21 Program National Center for Advancing Translational Sciences [NCATS] NIH Chemical Genomics Center [NCGC] U.S. Environmental Protection Agency [EPA] National Institutes of Environmental Health Sciences [NIEHS] National Toxicology Program [NTP] U.S. Food and Drug Administration [FDA] […]
Results filed as inconclusive are left out. Activity calls are given as the source filed them. Calls follow the shape of the dose curve; as a rule, active = well fitted activation curve with a large enough effect in the signal ratio in the repeat runs (not every such curve was filed as active); inconclusive = weak or mixed curves; inactive = flat fitted curve, though single readings scatter; the % refers to the signal ratio.
endpoint-name: activation

Please review the following examples before continuing.
{"compound": "CN(C)/N=N/c1nc[nH]c1C(N)=O", "result": "inactive"}
{"compound": "COC(=O)C(C)Oc1ccc(Oc2ncc(C(F)(F)F)cc2Cl)cc1 (stereo unspecified)", "result": "inactive"}
{"compound": "Nc1cc(Cl)c(N)c(Cl)c1", "result": "inactive"}
{"compound": "O=C(O)c1cc(=O)[nH]c(=O)[nH]1", "result": "inactive"}
{"compound": "Nc1ccc(O)c(N)c1", "result": "inactive"}
{"compound": "CCC/C=C/C=O", "result": "inactive"}
{"compound": "CCCCCCCCCCCCO", "result": "inactive"}
{"compound": "O=[Se](O)O", "result": "-0.714% [at 15.8 µM] (inactive)"}
{"compound": "C[C@]12CC[C@@H]3c4ccc(O)cc4CC[C@H]3[C@@H]1CC[C@@H]2O", "result": "inactive"}
{"compound": "C[C@]12CC[C@@H]3c4ccc(O)cc4CC[C@H]3[C@@H]1CC[C@H]2O", "result": "inactive"}

q: Which measured activation value corresponds to O=C(O)COCCN1CCN(C(c2ccccc2)c2ccc(Cl)cc2)CC1 (stereo unspecified) ?
a: inactive

q: Item: "CCC(=O)O[C@H]1[C@H](O[C@@H]2[C@@H](C)[C@H](O[C@H]3C[C@@](C)(OC)[C@@H](O)[C@H](C)O3)[C@@H](C)C(=O)O[C@H](CC)[C@@](C)(O)[C@H](O)[C@@H](C)C(=O)[C@H](C)C[C@@]2(C)O)O[C@H](C)C[C@@H]1N(C)C"
a: inactive

q: Item: "CC(C)[N+](C)(CCOC(=O)C1c2ccccc2Oc2ccccc21)C(C)C"
a: inactive

---

Test: qHTS assay to identify small molecule antagonists of the androgen receptor (AR) signaling pathway using the MDA cell line - cell viability counter screen (AID 743041; also: nearly all actives have a fitted effect of over 45% in size)
Settings: MDA-kb2 viability, CellTiter-Fluor, 16 h, cells co-treated with R1881 androgen agonist; series mostly up to 70.3 µM
Records with an inconclusive call do not appear. Calls of active or inactive are those of the source. Calls come from the whole dose curve; as a rule, active = well fitted cell-killing curve with a large enough effect in the repeat runs; inconclusive = weak or mixed curves, or effect the other way; inactive = flat fitted curve, though single readings scatter.
Please state which outcome applies, choosing from active, inactive

Below are worked cases with known answers.
{"compound": "CC[C@]12CCCN3CCc4c(n(c5ccccc45)[C@@](O)(C(=O)OC)C1)[C@@H]32", "label-class": "inactive"}
{"compound": "CCC(=O)O[C@H]1[C@H](O[C@@H]2[C@@H](C)[C@H](O[C@H]3C[C@@](C)(OC)[C@@H](O)[C@H](C)O3)[C@@H](C)C(=O)O[C@H](CC)[C@@](C)(O)[C@H](O)[C@@H](C)C(=O)[C@H](C)C[C@@]2(C)O)O[C@H](C)C[C@@H]1N(C)C", "label-class": "inactive"}
{"compound": "C1COCCN1", "label-class": "inactive"}
{"compound": "C/C=C/C(=O)N(CC)c1ccccc1C", "label-class": "inactive"}

q: Please let me know the test result on file for "C=CCOC(=O)C(=C)C" .
a: inactive

q: Item: "CN1CCOCC1"
a: inactive

q: Item: "CCCOCCO"
a: inactive

q: Item: "O=S1(=O)CCCO1"
a: inactive

q: Item: "CC1(C)NC(=O)N(c2ccc([N+](=O)[O-])c(C(F)(F)F)c2)C1=O"
a: active

q: Item: "CC(=O)[C@H]1CC[C@H]2[C@@H]3CC=C4C[C@@H](O)CC[C@]4(C)[C@H]3CC[C@]12C"
a: inactive

q: Item: "CCCCCC=O"
a: inactive

q: Item: "[Na+]"
a: inactive
